Target: T1, human GIP receptor (human, UniProt P48546 22-466)
T1 sequence (looked up): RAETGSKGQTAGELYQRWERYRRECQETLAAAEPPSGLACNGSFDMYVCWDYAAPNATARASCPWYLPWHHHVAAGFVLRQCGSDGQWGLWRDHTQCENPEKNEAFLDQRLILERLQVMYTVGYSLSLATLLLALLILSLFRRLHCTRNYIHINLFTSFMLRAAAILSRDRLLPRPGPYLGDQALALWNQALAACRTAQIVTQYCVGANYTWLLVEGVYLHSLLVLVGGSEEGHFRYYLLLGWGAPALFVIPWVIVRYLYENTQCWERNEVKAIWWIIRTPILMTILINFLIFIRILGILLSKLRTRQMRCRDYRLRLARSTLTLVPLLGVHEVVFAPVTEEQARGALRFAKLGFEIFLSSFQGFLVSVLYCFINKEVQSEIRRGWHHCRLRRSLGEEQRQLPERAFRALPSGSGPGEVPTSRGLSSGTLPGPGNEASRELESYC
Experiment: cell-based or functional assay
assay readout: EC50 (cAMP) (nM)
Expressed in nM, but write only the number.

Consider the binder HAEGTFISDYSTILDNLAARDFINWLIQTKITDNDWKHNITQ [GIP-GLP-2 co-agonist 2] and give its measured EC50 (cAMP).
12

Follow-up entry: HADGTFISDYSTILDNLAARDFINWLIQTKITK [GIP-GLP-2 co-agonist 18]
0.66

Follow-up entry: HAEGTFISDYSTILDNLAARDFINWLIQTKGKK [GIP-GLP-2 co-agonist 10]
5.4

Follow-up entry: HADGTFISEYSTILDNLAARDFINWLIQTKITD [GIP-GLP-2 co-agonist 15]
3.2

Follow-up entry: HADGTFISDYSTILDNLAARDFINWLIQTKIKD [GIP-GLP-2 co-agonist 17]
0.4

Follow-up entry: HADGTFISDYSTILDNLAARDFINWLIQTKGTD [GIP-GLP-2 co-agonist 16]
0.6

Follow-up entry: HADGTFSSDYSTILDNLAARDFINWLIQTKITD [GIP-GLP-2 co-agonist 13]
12

Follow-up entry: HGDGTFISDYSTILDNLAARDFINWLIQTKITD [GIP-GLP-2 co-agonist 11]
3.2

Now let's try a different one.
Consider the binder HAEGSFISDYSTILDNLAARDFINWLIQTKITD [GIP-GLP-2 co-agonist 4] and give its measured EC50 (cAMP).
38
